Target Or Test System: recombinant HCV NS5B (HCV RNA-dependent RNA polymerase) (Hepatitis C virus genotype 1b, UniProt P26663)
Sequence (P26663 2420-3010 limits assumed): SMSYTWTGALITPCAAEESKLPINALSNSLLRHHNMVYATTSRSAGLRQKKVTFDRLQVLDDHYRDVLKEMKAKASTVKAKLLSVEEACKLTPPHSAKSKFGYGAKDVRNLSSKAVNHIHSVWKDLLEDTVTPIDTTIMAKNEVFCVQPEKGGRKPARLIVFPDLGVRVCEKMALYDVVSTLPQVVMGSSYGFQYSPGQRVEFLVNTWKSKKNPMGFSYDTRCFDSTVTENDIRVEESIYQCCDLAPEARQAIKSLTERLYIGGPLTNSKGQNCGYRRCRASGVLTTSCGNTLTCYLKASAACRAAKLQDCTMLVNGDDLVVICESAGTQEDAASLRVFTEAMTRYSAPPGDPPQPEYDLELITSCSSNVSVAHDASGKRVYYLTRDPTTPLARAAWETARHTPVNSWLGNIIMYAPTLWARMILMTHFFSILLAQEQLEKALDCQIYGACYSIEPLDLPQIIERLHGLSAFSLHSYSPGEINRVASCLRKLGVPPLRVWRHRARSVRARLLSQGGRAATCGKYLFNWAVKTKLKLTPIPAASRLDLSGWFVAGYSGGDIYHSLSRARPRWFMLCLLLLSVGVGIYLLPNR
Test Protocol: biochemical
Conditions: related polymerase activity (Example 27 list); read-out: IC50
pIC50: −log10 of the molar value.
Listing: pIC50 of selected compounds

- Smiles Text: "CC(=O)c1cccc(-c2cc(N(C)C(=O)c3ccc(C)cc3)c(C(=O)O)s2)c1"
  pIC50: "4.70 to 5.30"
- Smiles Text: "CC(C)CCC(=O)N(C)c1cc(-c2ccccc2)sc1C(=O)O"
  pIC50: "4.70 to 5.30"
- Smiles Text: "Cc1cc(S(=O)(=O)N(C)c2cc(-c3ccccc3)sc2C(=O)O)c(C)cc1Cl"
  pIC50: "4.70 to 5.30"
- Smiles Text: "CC(C)Cc1cc(N(C(=O)c2ccc(Cl)cc2Cl)C(C)C)c(C(=O)O)s1"
  pIC50: "> 5.30"
- Smiles Text: "O=C(O)c1sc(-c2ccccc2)cc1NS(=O)(=O)c1cc(OCC(F)(F)F)ccc1OCC(F)(F)F"
  pIC50: "4.70 to 5.30"
- Smiles Text: "Cc1nn(C)c(Cl)c1S(=O)(=O)Nc1cc(-c2ccccc2)sc1C(=O)O"
  pIC50: "4.70 to 5.30"
- Smiles Text: "Cc1ccccc1S(=O)(=O)Nc1cc(-c2ccc(C(N)=O)cc2)sc1C(=O)O"
  pIC50: "4.70 to 5.30"
- Smiles Text: "O=C(O)c1sc(-c2ccccc2)cc1N(C(=O)c1ccc(Cl)cc1Cl)C1CCN(C(=O)c2ccc(Cl)cc2Cl)CC1"
  pIC50: "> 5.30"
- Smiles Text: "Cc1ccc(C(=O)N(C)c2cc(-c3cccc(C)c3)sc2C(=O)O)cc1"
  pIC50: "> 5.30"
- Smiles Text: "Cc1ccc(C(=O)N(C)c2cc(-c3cccc(C(F)(F)F)c3)sc2C(=O)O)cc1"
  pIC50: "> 5.30"
- Smiles Text: "CC(=O)c1ccc(-c2cc(N(C(=O)c3ccc(Cl)cc3Cl)C(C)C)c(C(=O)O)s2)cc1"
  pIC50: "> 5.30"
- Smiles Text: "Cc1ccccc1S(=O)(=O)Nc1cc(-c2ccc(Cl)c(Cl)c2)sc1C(=O)O"
  pIC50: "4.70 to 5.30"
- Smiles Text: "Cc1ccc(C(=O)N(c2cc(-c3ccccc3)sc2C(=O)O)C(C)C)c(Br)c1"
  pIC50: "> 5.30"
- Smiles Text: "Cc1ccc(C(=O)N(C)c2cc(-c3ccc(F)cc3)sc2C(=O)O)cc1"
  pIC50: "> 5.30"
- Smiles Text: "O=C(O)c1sc(-c2ccccc2)cc1NS(=O)(=O)c1ccc(F)cc1F"
  pIC50: "> 5.30"
- Smiles Text: "COC(=O)c1sc(-c2ccccc2)cc1NC(=O)c1ccccc1C(=O)O"
  pIC50: "4.70 to 5.30"
- Smiles Text: "Cc1ccc(C(=O)N(C)c2cc(-c3ccc(N)cc3)sc2C(=O)O)cc1"
  pIC50: "4.70 to 5.30"

* * *

Target Or Test System: recombinant HCV NS5B (HCV RNA-dependent RNA polymerase) (Hepatitis C virus genotype 1b, UniProt P26663)
Test Protocol: biochemical
Conditions: related polymerase activity (Example 27 list); read-out: IC50
pIC50: −log10 of the molar value.
Listing: pIC50 of selected compounds
Endpoint: pIC50

- Compound: "O=C(O)c1sc(-c2ccc(Cl)cc2)cc1NS(=O)(=O)c1ccccn1 [Compound 116]"
  Endpoint: "pIC50"
  Result: "4.70 to 5.30"
- Compound: "O=C(O)c1sc(-c2ccccc2)cc1NS(=O)(=O)c1ccc(Cl)c(Cl)c1Cl [Compound 153]"
  Endpoint: "pIC50"
  Result: "> 5.30"
- Compound: "CN(C(=O)c1ccc(C(F)(F)F)c(F)c1)c1cc(-c2ccccc2)sc1C(=O)O [Compound 279]"
  Endpoint: "pIC50"
  Result: "4.70 to 5.30"
- Compound: "Cc1ccc(C(=O)N(c2cc(-c3ccccc3)sc2C(=O)O)C(C)C)cc1 [Compound 211]"
  Endpoint: "pIC50"
  Result: "> 5.30"
- Compound: "NC(=O)c1ccc(-c2cc(NS(=O)(=O)c3ccc(Cl)cc3)c(C(=O)O)s2)cc1 [Compound 265]"
  Endpoint: "pIC50"
  Result: "> 5.30"
- Compound: "Cc1ccc(S(=O)(=O)N(C)c2cc(-c3ccccc3)sc2C(=O)O)c(C)c1 [Compound 235]"
  Endpoint: "pIC50"
  Result: "> 5.30"
- Compound: "CC1CCC(C(=O)N(c2cc(-c3cccc([N+](=O)[O-])c3)sc2C(=O)O)C(C)C)CC1 (centres unmarked) [Compound 383]"
  Endpoint: "pIC50"
  Result: "> 5.30"
- Compound: "Cc1ccccc1S(=O)(=O)Nc1cc(-c2cccc(N)c2)sc1C(=O)O [Compound 164]"
  Endpoint: "pIC50"
  Result: "4.70 to 5.30"
- Compound: "CN(C(=O)c1cccs1)c1cc(-c2ccccc2)sc1C(=O)O [Compound 75]"
  Endpoint: "pIC50"
  Result: "4.70 to 5.30"
- Compound: "Cc1ccccc1S(=O)(=O)Nc1cc(-c2ccc(O)cc2)sc1C(=O)O [Compound 190]"
  Endpoint: "pIC50"
  Result: "> 5.30"
- Compound: "Cc1ccc(C(=O)N(Cc2cccc(C(C)(C)C)c2)c2cc(-c3ccccc3)sc2C(=O)O)cc1 [Compound 334]"
  Endpoint: "pIC50"
  Result: "> 5.30"
- Compound: "CC(C)N(C(=O)c1ccc(Cl)cc1Cl)c1cc(-c2cccc(Cl)c2)sc1C(=O)O [Compound 294]"
  Endpoint: "pIC50"
  Result: "> 5.30"
- Compound: "C=C(C)Cc1cc(N(C(=O)c2ccc(Cl)cc2Cl)C(C)C)c(C(=O)O)s1 [Compound 338]"
  Endpoint: "pIC50"
  Result: "> 5.30"
- Compound: "Cc1ccc(C(=O)N(c2cc(-c3ccccc3)sc2C(=O)O)C(C)C)c(C)c1 [Compound 262]"
  Endpoint: "pIC50"
  Result: "> 5.30"
- Compound: "O=C(Nc1cc(-c2ccccc2)sc1C(=O)O)Oc1ccc(Cl)cc1 [Compound 33]"
  Endpoint: "pIC50"
  Result: "4.70 to 5.30"
- Compound: "O=C(O)c1sc(-c2ccccc2)cc1NC(=O)N1CCc2ccccc2C1 [Compound 180]"
  Endpoint: "pIC50"
  Result: "4.70 to 5.30"
- Compound: "CC(=O)c1ccc(-c2cc(NS(=O)(=O)c3ccc(C)cc3C)c(C(=O)O)s2)cc1 [Compound 236]"
  Endpoint: "pIC50"
  Result: "> 5.30"

* * *

Target Or Test System: recombinant HCV NS5B (HCV RNA-dependent RNA polymerase) (Hepatitis C virus genotype 1b, UniProt P26663)
Test Protocol: biochemical
Conditions: related polymerase activity (Example 27 list); read-out: IC50
Listing: IC50 of selected compounds
Endpoint: IC50

- Compound: "Cc1ccc(C(=O)N(C)c2cc(-c3ccc(C(F)(F)F)cc3)sc2C(=O)O)cc1 [Compound 275]"
  Result: "< 5 µM"
- Compound: "CC(C)N(C(=O)c1ccc(Cl)nc1)c1cc(-c2ccccc2)sc1C(=O)O [Compound 246]"
  Result: "> 20 µM"
- Compound: "CC(C)N(C(=O)c1ccc(C(F)(F)F)cc1F)c1cc(-c2ccccc2)sc1C(=O)O [Compound 326]"
  Result: "< 5 µM"
- Compound: "CCN(C(=O)C1CCC1)c1cc(-c2ccccc2)sc1C(=O)O [Compound 393]"
  Result: "5 to 20 µM"
- Compound: "COc1cccc(-c2cc(NS(=O)(=O)c3ccccc3C)c(C(=O)O)s2)c1 [Compound 123]"
  Result: "< 5 µM"
- Compound: "C=CCN(C(=O)CCCCC)c1cc(-c2ccccc2)sc1C(=O)O [Compound 397]"
  Result: "5 to 20 µM"
- Compound: "CN(C(=O)c1ccc(C(F)(F)F)c(F)c1F)c1cc(-c2ccccc2)sc1C(=O)O [Compound 278]"
  Result: "5 to 20 µM"
- Compound: "CN(C(=O)c1ccc(Cl)cc1)c1cc(-c2ccccc2)sc1C(=O)O [Compound 73]"
  Result: "< 5 µM"

* * *

Listing: IC50 of selected molecules
Target Or Test System: recombinant HCV NS5B (HCV RNA-dependent RNA polymerase) (Hepatitis C virus genotype 1b)
Test Protocol: biochemical
Conditions: related polymerase activity (Example 27 list); read-out: IC50
Endpoint: IC50

- Smiles Text: "Cc1ccc(C(=O)N(C)c2cc(-c3ccc(F)c(F)c3)sc2C(=O)O)cc1"
  Endpoint: "IC50"
  Result: "< 5 µM"
- Smiles Text: "Cc1ccccc1S(=O)(=O)Nc1cc(-c2ccc(C(=O)O)cc2)sc1C(=O)O"
  Endpoint: "IC50"
  Result: "< 5 µM"
- Smiles Text: "O=C(Nc1cc(-c2ccccc2)sc1C(=O)O)c1cccs1"
  Endpoint: "IC50"
  Result: "5 to 20 µM"
- Smiles Text: "O=C(O)c1sc(-c2ccc([N+](=O)[O-])cc2)cc1NS(=O)(=O)c1ccc(F)cc1F"
  Endpoint: "IC50"
  Result: "< 5 µM"
- Smiles Text: "CC(C)N(C(=O)c1ccc(Cl)cc1N)c1cc(-c2ccccc2)sc1C(=O)O"
  Endpoint: "IC50"
  Result: "< 5 µM"
- Smiles Text: "COc1cccc(S(=O)(=O)Nc2cc(-c3ccc(CC(C)C)cc3)sc2C(=O)O)c1"
  Endpoint: "IC50"
  Result: "> 20 µM"
- Smiles Text: "CC(C)N(C(=O)C1CCCCC1)c1cc(-c2ccccc2)sc1C(=O)O"
  Endpoint: "IC50"
  Result: "5 to 20 µM"
- Smiles Text: "C=CCN(C(=O)c1ccc(C)cc1)c1cc(-c2cccc(/C=C/C(=O)O)c2)sc1C(=O)O"
  Endpoint: "IC50"
  Result: "5 to 20 µM"
